The following compounds are listed with their measured pKi values.
Molecular target: UniProt:Q12809
Sequence (Q12809 whole entry): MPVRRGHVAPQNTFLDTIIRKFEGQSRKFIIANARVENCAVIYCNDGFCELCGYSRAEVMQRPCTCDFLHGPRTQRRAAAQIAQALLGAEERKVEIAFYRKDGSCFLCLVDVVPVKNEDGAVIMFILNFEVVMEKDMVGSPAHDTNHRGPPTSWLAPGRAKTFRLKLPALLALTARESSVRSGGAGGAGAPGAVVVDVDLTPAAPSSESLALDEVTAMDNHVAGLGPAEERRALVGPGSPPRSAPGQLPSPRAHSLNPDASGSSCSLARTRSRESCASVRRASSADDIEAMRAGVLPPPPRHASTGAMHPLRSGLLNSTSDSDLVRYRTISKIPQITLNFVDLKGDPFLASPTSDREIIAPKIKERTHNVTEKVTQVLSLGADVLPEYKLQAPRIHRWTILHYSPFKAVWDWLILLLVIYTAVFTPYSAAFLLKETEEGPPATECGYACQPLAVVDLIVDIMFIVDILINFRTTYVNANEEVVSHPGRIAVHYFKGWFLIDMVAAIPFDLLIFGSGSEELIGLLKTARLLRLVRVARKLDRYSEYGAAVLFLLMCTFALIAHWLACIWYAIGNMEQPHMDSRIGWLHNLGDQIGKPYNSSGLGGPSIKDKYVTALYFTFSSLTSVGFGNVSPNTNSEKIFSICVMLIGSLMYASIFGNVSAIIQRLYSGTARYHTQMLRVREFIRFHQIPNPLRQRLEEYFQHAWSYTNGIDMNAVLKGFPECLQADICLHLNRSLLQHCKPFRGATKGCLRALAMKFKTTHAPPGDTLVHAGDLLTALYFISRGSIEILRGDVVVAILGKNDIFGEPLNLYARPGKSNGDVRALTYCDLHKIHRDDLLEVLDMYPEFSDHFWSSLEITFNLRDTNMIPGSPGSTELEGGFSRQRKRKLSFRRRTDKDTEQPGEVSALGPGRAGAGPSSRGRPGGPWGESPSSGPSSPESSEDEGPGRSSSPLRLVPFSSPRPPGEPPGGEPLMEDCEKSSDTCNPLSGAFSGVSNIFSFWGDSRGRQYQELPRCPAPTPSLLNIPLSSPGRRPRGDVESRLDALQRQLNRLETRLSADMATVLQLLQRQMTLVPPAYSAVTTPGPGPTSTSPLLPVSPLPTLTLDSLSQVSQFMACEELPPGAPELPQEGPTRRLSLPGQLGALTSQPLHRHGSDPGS
Entry type: numeric. Quantity: pKi, the -log10 of concentration in molar units.

Here `CN(C)CCN(C)C1CCN(c2nc3ccccc3n2Cc2ccc(F)cc2)CC1` was tested on UniProt:Q12809, and its pKi came to 6.11

Here `CN(c1nccc(=O)[nH]1)C1CCN(c2nc3ccccc3n2Cc2ccc(F)cc2)CC1` was tested on UniProt:Q12809, and its pKi came to 5.14

Here `CN(CCO)C1CCN(c2nc3ccccc3n2Cc2ccc(F)cc2)CC1` was tested on UniProt:Q12809, and its pKi came to 6.94

Here `Cc1ccc(Cn2c(N3CCC(N(C)C)CC3)nc3ccccc32)cc1` was tested on UniProt:Q12809, and its pKi came to 7.14

Here `COc1ccc(Cn2c(N3CCC(NCC4CCOCC4)CC3)nc3ccccc32)cc1` was tested on UniProt:Q12809, and its pKi came to 5.84

Here `Fc1ccc(Cn2c(N3CCC(n4ccnc4)CC3)nc3ccccc32)cc1` was tested on UniProt:Q12809, and its pKi came to 6.86

Here `COc1ccc(Cn2c(N3CCC(N(C)CC4CCOCC4)CC3)nc3ccccc32)cc1` was tested on UniProt:Q12809, and its pKi came to 6.99

Here `Fc1ccc(Cn2c(N3CCC(n4cccc4)CC3)nc3ccccc32)cc1` was tested on UniProt:Q12809, and its pKi came to 6.80

Here `Fc1ccc(Cn2c(N3CCC(NCC4CCOCC4)CC3)nc3ccccc32)cc1` was tested on UniProt:Q12809, and its pKi came to 6.37

Here `CN(C)C1CCN(c2nc3ccccc3n2Cc2ccc(F)cc2)CC1` was tested on UniProt:Q12809, and its pKi came to 7.24
